Target: hA1AR (Homo sapiens (Human), UniProt P30542)
Sequence (P30542 whole entry): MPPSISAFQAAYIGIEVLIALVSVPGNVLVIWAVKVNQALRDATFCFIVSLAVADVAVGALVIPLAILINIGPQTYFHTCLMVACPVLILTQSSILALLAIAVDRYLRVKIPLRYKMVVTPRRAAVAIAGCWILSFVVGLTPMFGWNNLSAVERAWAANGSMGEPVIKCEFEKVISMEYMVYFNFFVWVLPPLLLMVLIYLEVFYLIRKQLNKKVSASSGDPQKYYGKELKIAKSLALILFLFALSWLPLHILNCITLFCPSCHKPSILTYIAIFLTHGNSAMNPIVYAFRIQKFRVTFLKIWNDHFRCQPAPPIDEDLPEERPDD
Assay: Radioligand binding at hA1AR, CHO cell membranes, [3H]R-PIA
Details: inhibition of binding at 10 μM
So basically: hA1AR % inhibition at 30% or higher? That is criterion met. Lower than 30%? That is criterion not met.

Worked cases, answers included:
{"compound": "CNC(=O)[C@]12CC1[C@@H](n1cnc3c(NCCc4ccccc4)nc(-n4cc(-c5ccc(Cl)s5)nn4)nc31)[C@H](O)C2O (stereo partly shown)", "class label": "criterion met"}
{"compound": "CNC(=O)[C@]12CC1[C@@H](n1cnc3c(NCCc4ccccc4)nc(I)nc31)[C@H](O)C2O (stereo partly shown)", "class label": "criterion met"}

input: Decide: is the reported value of hA1AR % inhibition for CNC(=O)[C@]12CC1[C@@H](n1cnc3c(NC)nc(-n4cc(-c5cc6ccccc6o5)nn4)nc31)[C@H](O)C2O (stereo partly shown) equal to or greater than 30%?
output: criterion not met

input: Decide: is the reported value of hA1AR % inhibition for CNC(=O)[C@]12CC1[C@@H](n1cnc3cnc(C#Cc4ccccc4)nc31)[C@H](O)C2O (stereo partly shown) equal to or greater than 30%?
output: criterion not met

input: Decide: is the reported value of hA1AR % inhibition for CNC(=O)[C@]12CC1[C@@H](n1cnc3c(NC)nc(-n4cc(-c5cnn(C)c5)nn4)nc31)[C@H](O)C2O (stereo partly shown) equal to or greater than 30%?
output: criterion not met

input: Decide: is the reported value of hA1AR % inhibition for CNC(=O)[C@]12CC1[C@@H](n1cnc3c(NC)nc(-n4cc(-c5ccccn5)nn4)nc31)[C@H](O)C2O (stereo partly shown) equal to or greater than 30%?
output: criterion not met
